- TEST_SYSTEM: Proteinase K (Parengyodontium album)
- Sequence (P06873 106-384): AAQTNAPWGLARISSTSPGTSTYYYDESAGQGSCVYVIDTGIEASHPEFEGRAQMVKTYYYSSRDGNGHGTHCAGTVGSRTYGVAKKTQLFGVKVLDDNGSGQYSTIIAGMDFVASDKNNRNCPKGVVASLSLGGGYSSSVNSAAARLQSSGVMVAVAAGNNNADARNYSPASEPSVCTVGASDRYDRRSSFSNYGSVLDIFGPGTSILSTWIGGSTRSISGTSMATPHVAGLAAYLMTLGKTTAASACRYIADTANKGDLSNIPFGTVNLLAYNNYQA
- TEST_METHOD_NOTES: Esterase assay, proteinase K
- Format: biochemical
- CONDITIONS_USED: Z-AX-OMe substrate; percentage of the maximum activity
- Text: Advantage was taken of this activity to develop an "esterase" assay which uses a pH indicator to visualise the hydrogen ion release caused by the action of proteases on peptide-ester substrates. A series of twenty compounds of the form, carbobenzoxy alanyl-X-methyl ester (Z-AX-OMe) were synthesised where "X" is one of the naturally occurring amino acids. […] The reactions were followed visually or quantified using a standard ELISA plate reader. […]
Where a SMILES comes first, the peptide text is derived from it. The star is where a group is joined. Cbz = O=C(OCc1ccccc1)*
% of maximum activity, Proteinase K of 10% or higher: 1. Under 10%: 0.

INSERT INTO assay_data (molecule, assigned_label) VALUES
  ('COC(=O)[C@H](CC(=O)O)NC(=O)[C@H](C)NC(=O)OCc1ccccc1 [Asp] (Cbz-Ala-Asp-OMe)', 0),
  ('COC(=O)[C@@H](NC(=O)[C@H](C)NC(=O)OCc1ccccc1)[C@@H](C)O [Thr] (Cbz-Ala-Thr-OMe)', 1),
  ('COC(=O)[C@H](C)NC(=O)[C@H](C)NC(=O)OCc1ccccc1 [Ala] (Cbz-Ala-Ala-OMe)', 1),
  ('COC(=O)[C@H](CCSC)NC(=O)[C@H](C)NC(=O)OCc1ccccc1 [Met] (Cbz-Ala-Met-OMe)', 1),
  ('COC(=O)[C@H](CS)NC(=O)[C@H](C)NC(=O)OCc1ccccc1 [Cys] (Cbz-Ala-Cys-OMe)', 1);

**Query** Test whether the molecule COC(=O)[C@@H](NC(=O)[C@H](C)NC(=O)OCc1ccccc1)C(C)C [Val] (Cbz-Ala-Val-OMe) records % of maximum activity, Proteinase K of 10% or higher.
**Result** 1

**Query** Threshold query (% of maximum activity, Proteinase K >= 10%) on CC[C@H](C)[C@H](NC(=O)[C@H](C)NC(=O)OCc1ccccc1)C(=O)OC [Ile] (Cbz-Ala-Ile-OMe)
**Result** 0

**Query** Has COC(=O)CNC(=O)[C@H](C)NC(=O)OCc1ccccc1 [Gly] (Cbz-Ala-Gly-OMe) a recorded % of maximum activity, Proteinase K greater than or equal to 10%?
**Result** 0

**Query** Reported % of maximum activity, Proteinase K reaches at least 10% for COC(=O)[C@H](Cc1cnc[nH]1)NC(=O)[C@H](C)NC(=O)OCc1ccccc1 [His] (Cbz-Ala-His-OMe) ?
**Result** 1

**Query** Tell me whether % of maximum activity, Proteinase K is at least 10% here: COC(=O)[C@H](CCC(N)=O)NC(=O)[C@H](C)NC(=O)OCc1ccccc1 [Gln] (Cbz-Ala-Gln-OMe)
**Result** 1

**Query** In plain terms: is recorded % of maximum activity, Proteinase K at least 10% for COC(=O)[C@H](Cc1ccc(O)cc1)NC(=O)[C@H](C)NC(=O)OCc1ccccc1 [Tyr, Z-Ala-Tyr-OMe] (Cbz-Ala-Tyr-OMe) ?
**Result** 1

**Query** Identify whether the reported % of maximum activity, Proteinase K of the following molecule is 10% or greater: COC(=O)[C@H](CO)NC(=O)[C@H](C)NC(=O)OCc1ccccc1 [Ser] (Cbz-Ala-Ser-OMe)
**Result** 1

**Query** Kindly determine if % of maximum activity, Proteinase K recorded for COC(=O)[C@H](CC(N)=O)NC(=O)[C@H](C)NC(=O)OCc1ccccc1 [Asn] (Cbz-Ala-Asn-OMe) is above or exactly 10%.
**Result** 1

**Query** Evaluate COC(=O)[C@H](Cc1c[nH]c2ccccc12)NC(=O)[C@H](C)NC(=O)OCc1ccccc1 [Trp] (Cbz-Ala-Trp-OMe) : % of maximum activity, Proteinase K at minimum 10%?
**Result** 1

**Query** Check the entry COC(=O)[C@H](CCCCN)NC(=O)[C@H](C)NC(=O)OCc1ccccc1 [Lys] (Cbz-Ala-Lys-OMe) : does % of maximum activity, Proteinase K equal or exceed 10%?
**Result** 0

Each recorded value in this set is attributed to patent US5932410A.
